Each entry below carries its reported PDE IV hum. PMNs -lg[IC50 ].
tested on: PDE IV; assay: inhibition of PDE IV isolated from human polymorphonuclear neutrophilic cells (PMNs); assay type: biochemical; conditions: negative logarithm of IC50; cAMP 0.5 μmol/l

Query: Entry `Nc1ccc(-c2ccc(OC(F)F)c(OC3CCCC3)c2)nn1` needs its PDE IV hum. PMNs -lg[IC50 ] filled in; supply it.
Response: 7.15

Query: Entry `Nc1ccc(-c2ccc(OC(F)F)c(OC3CCCC3)c2)n[n+]1[O-]` needs its PDE IV hum. PMNs -lg[IC50 ] filled in; supply it.
Response: 7.24

Query: Entry `COc1cc(-c2ccc(N)[n+]([O-])n2)ccc1OC(F)F` needs its PDE IV hum. PMNs -lg[IC50 ] filled in; supply it.
Response: 5.89

Query: Entry Cn1c(=O)c2[nH]cnc2n(C)c1=O [Theophylline, reference compound] needs its PDE IV hum. PMNs -lg[IC50 ] filled in; supply it.
Response: 3.77

Query: Entry `CC(C)Oc1cc(-c2ccc(N)nn2)ccc1OC(F)F` needs its PDE IV hum. PMNs -lg[IC50 ] filled in; supply it.
Response: 6.78

----------
test system: PDE IV; assay: inhibition of PDE IV isolated from dog trachea; type: biochemical; settings: negative logarithm of IC50; cAMP 0.5 μmol/l
readoutKind: PDE IV dog trachea -lg[IC50 ]
Enter the number alone.

// worked examples, PDE IV dog trachea -lg[IC50 ] included
>>> measuredvalue("COc1cc(-c2ccc(N)nn2)ccc1OC(F)F")
5.09
>>> measuredvalue("CCOc1cc(-c2ccc(N)nn2)ccc1OC(F)F")
5.37
>>> measuredvalue("CCOc1ccc(-c2ccc(N)nn2)cc1OC(F)F")
4.42
>>> measuredvalue("CCOc1cc(-c2ccc(N)[n+]([O-])n2)ccc1OC(F)F")
5.82
>>> measuredvalue("COc1cc(-c2ccc(N)[n+]([O-])n2)ccc1OC(F)F")
5.08

Query: Enter measured PDE IV dog trachea -lg[IC50 ], system PDE IV, for the compound shown: `COc1ccc(-c2ccc(N)nn2)cc1OC(C)C`
Response: 5.30

Query: Enter measured PDE IV dog trachea -lg[IC50 ], system PDE IV, for the compound shown: `COc1ccc(-c2ccc(N)nn2)cc1OCC1CCC1`
Response: 4.88

Query: Enter measured PDE IV dog trachea -lg[IC50 ], system PDE IV, for the compound shown: `CCOc1ccc(-c2ccc(N)nn2)cc1OCC(C)C`
Response: 5.68

Query: Enter measured PDE IV dog trachea -lg[IC50 ], system PDE IV, for the compound shown: `COc1ccc(-c2ccc(N)nn2)cc1OC1CCCCC1`
Response: 5.17

Query: Enter measured PDE IV dog trachea -lg[IC50 ], system PDE IV, for the compound shown: `COc1ccc(-c2ccc(N)nn2)cc1OC1CCCCCC1`
Response: 5.37

----------
Biological target: PDE III (Homo sapiens)
Construct: PDE III isolated from human platelets; from tissue; host or cells: human platelets
Sequence (Q14432 whole entry): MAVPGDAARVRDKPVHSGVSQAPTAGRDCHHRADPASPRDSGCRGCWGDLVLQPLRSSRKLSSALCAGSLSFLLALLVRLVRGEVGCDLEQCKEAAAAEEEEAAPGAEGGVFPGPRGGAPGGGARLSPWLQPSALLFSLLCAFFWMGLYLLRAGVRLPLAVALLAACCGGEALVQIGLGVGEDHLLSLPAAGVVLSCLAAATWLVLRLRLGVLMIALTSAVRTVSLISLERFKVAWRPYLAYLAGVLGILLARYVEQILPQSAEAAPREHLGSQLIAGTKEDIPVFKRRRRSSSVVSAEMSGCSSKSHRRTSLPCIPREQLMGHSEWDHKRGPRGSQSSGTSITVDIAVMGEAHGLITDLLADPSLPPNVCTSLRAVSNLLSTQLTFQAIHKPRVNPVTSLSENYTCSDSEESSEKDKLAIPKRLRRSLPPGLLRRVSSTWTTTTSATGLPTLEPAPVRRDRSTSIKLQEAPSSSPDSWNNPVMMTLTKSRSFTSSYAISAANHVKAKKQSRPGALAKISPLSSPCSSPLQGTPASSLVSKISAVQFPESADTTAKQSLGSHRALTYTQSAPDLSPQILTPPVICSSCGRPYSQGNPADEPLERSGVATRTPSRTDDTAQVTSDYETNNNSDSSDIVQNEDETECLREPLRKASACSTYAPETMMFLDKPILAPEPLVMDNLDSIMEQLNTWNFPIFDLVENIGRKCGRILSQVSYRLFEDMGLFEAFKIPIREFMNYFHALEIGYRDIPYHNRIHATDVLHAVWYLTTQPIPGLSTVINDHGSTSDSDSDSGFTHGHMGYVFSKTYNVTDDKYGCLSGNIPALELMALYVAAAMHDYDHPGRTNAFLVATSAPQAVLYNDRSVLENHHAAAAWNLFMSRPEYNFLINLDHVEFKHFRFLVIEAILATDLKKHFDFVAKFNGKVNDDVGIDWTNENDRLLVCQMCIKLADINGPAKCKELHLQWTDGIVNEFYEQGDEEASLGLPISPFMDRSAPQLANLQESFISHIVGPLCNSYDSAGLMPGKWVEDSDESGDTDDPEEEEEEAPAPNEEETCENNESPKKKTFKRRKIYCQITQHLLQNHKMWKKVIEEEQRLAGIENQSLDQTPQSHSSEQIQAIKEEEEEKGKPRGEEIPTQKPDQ
Experiment: inhibition of PDE III isolated from human platelets
Format: biochemical
Conditions: negative logarithm of IC50; cAMP 0.5 μmol/l; read-out: PDE III hum. platelets -lg[IC50 ] (converted)
Experimental: The specific inhibition of phosphodiesterase IV (PDE IV=high-affinity cAMP-PDE which cannot be inhibited by cGMP, rolipram-sensitive) is regarded as particularly indicative of an expected bronchospasmolytic and/or antiinflammatory effect. […] For this reason, the PDE inhibition by the compounds according to the invention was determined on a PDE III isolated from human platelets and on PDE IV isolated from human polymorphonuclear neutrophilic cells (PMNs) and from the dog trachea. […]
Entries are sorted into classes by IC50 as follows: lo: < 70 µM; mid: ≥ 70 µM and < 200 µM; hi: ≥ 200 µM

Query: In plain terms, what class is `CC(C)COc1cc(-c2ccc(N)nn2)ccc1OC(F)F` ?
Response: mid
